Listed here: items and their measured Inhibition of Factor XI protein relative to the PBS control.
# System: Factor XI protein
# Measurement protocol: Cynomolgus monkeys: plasma Factor XI protein ELISA (Example 30)
# Format: in vivo
# Experimental parameters: 25 mg/kg s.c.; plasma ELISA; Day 55
In the oligonucleotide strings, read from the 5' end, every base follows the letter of its sugar. An asterisk marks phosphorothioate; unmarked linkages are phosphodiester. Other units and linkages are bracketed, terminal groups are in braces. A string of capitals states the bases alone. e = 2'-O-(2-methoxyethyl) (MOE); [5mC] = 5-methylcytosine; d = 2'-deoxy (DNA)
Assay endpoint: Inhibition of Factor XI protein relative to the PBS control (%)

{"columns": ["Substance", "Tgt", "Unit descriptor", "Reported"],
 "data": [
  ["449710 (antisense e[5mC]*eA*e[5mC]*dA*dG*dT*dT*dT*d[5mC]*dT*dG*dG*d[5mC]*eA*eG*eG) [compound 449710]", "Factor XI protein", "%", 24],
  ["416850 (antisense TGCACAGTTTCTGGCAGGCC; 5-10-5 gapmer, wing sugar chemistry not given here, further chemistry not given here) [compound 416850]", "Factor XI protein", "%", 58],
  ["416858 (antisense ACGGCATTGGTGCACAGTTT; 5-10-5 gapmer, wing sugar chemistry not given here, further chemistry not given here) [compound 416858]", "Factor XI protein", "%", 81],
  ["449707 (antisense e[5mC]*eA*e[5mC]*eA*dG*dT*dT*dT*d[5mC]*dT*dG*dG*e[5mC]*eA*eG*eG) [compound 449707]", "Factor XI protein", "%", 32],
  ["445522 (antisense eG*e[5mC]*eA*e[5mC]*eA*dG*dT*dT*dT*d[5mC]*dT*dG*dG*e[5mC]*eA*eG*eG*e[5mC]) [compound 445522]", "Factor XI protein", "%", 82],
  ["449709 (antisense eG*e[5mC]*eA*e[5mC]*dA*dG*dT*dT*dT*d[5mC]*dT*dG*dG*d[5mC]*eA*eG*eG*e[5mC]) [compound 449709]", "Factor XI protein", "%", 50],
  ["445531 (antisense eG*eG*e[5mC]*eA*eT*dT*dG*dG*dT*dG*d[5mC]*dA*d[5mC]*eA*eG*eT*eT*eT) [compound 445531]", "Factor XI protein", "%", 37],
  ["449711 (antisense eA*e[5mC]*dA*dG*dT*dT*dT*d[5mC]*dT*dG*dG*d[5mC]*eA*eG) [compound 449711]", "Factor XI protein", "%", 5],
  ["449708 (antisense eA*e[5mC]*eA*dG*dT*dT*dT*d[5mC]*dT*dG*dG*e[5mC]*eA*eG) [compound 449708]", "Factor XI protein", "%", 6]
]}

* * *

# Tested on: human Factor XI mRNA
# Measurement protocol: Dose-dependent antisense inhibition in HepG2 cells, lipofectin (Example 2)
# Type: cell-based
# Experimental parameters: 18.75 nM, approximately 16 hours
In the oligonucleotide strings, read from the 5' end, every base follows the letter of its sugar. An asterisk marks phosphorothioate; unmarked linkages are phosphodiester. Other units and linkages are bracketed, terminal groups are in braces. A string of capitals states the bases alone. e = 2'-O-(2-methoxyethyl) (MOE); [5mC] = 5-methylcytosine; d = 2'-deoxy (DNA)

{"columns": ["Substance", "Tgt", "Unit descriptor", "percent inhibition of Factor XI"],
 "data": [
  ["413468 (antisense eG*eT*e[5mC]*eT*eA*dG*dG*dT*d[5mC]*d[5mC]*dA*d[5mC]*dA*dT*dA*eA*eA*eT*eG*eT) [compound 413468]", "human Factor XI mRNA", "%", 34],
  ["412223 (antisense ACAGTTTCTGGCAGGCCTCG; sugars from the 5' end e5 d10 e5, backbone and methylation of C not given here) [compound 412223]", "human Factor XI mRNA", "%", 48],
  ["413476 (antisense eT*eT*eG*eA*eG*dA*dT*dT*d[5mC]*dT*dT*dT*dG*dG*dG*e[5mC]*e[5mC]*eA*eT*eT) [compound 413476]", "human Factor XI mRNA", "%", 44]
]}

* * *

# Measurement protocol: Tolerability in Sprague-Dawley rats: hematology assays (Example 23)
# Assay type: in vivo
# Set-up: unit not given here
# Experimental parameters: blood
In the oligonucleotide strings, read from the 5' end, every base follows the letter of its sugar. An asterisk marks phosphorothioate; unmarked linkages are phosphodiester. Other units and linkages are bracketed, terminal groups are in braces. A string of capitals states the bases alone. e = 2'-O-(2-methoxyethyl) (MOE); [5mC] = 5-methylcytosine; d = 2'-deoxy (DNA)
Listed here: items and their measured RBC.
Assay endpoint: RBC

{"columns": ["Substance", "Reported"],
 "data": [
  ["ISIS 416852: gapmer of Table 8 (antisense eT*eG*eG*eT*eG*d[5mC]*dA*d[5mC]*dA*dG*dT*dT*dT*d[5mC]*dT*eG*eG*e[5mC]*eA*eG)", 7.2],
  ["ISIS 416861: gapmer of Table 8 (antisense eG*e[5mC]*eG*eG*eA*d[5mC]*dG*dG*d[5mC]*dA*dT*dT*dG*dG*dT*eG*e[5mC]*eA*e[5mC]*eA)", 7.7],
  ["ISIS 416851: gapmer of Table 8 (antisense eG*eT*eG*e[5mC]*eA*d[5mC]*dA*dG*dT*dT*dT*d[5mC]*dT*dG*dG*e[5mC]*eA*eG*eG*e[5mC])", 7.4],
  ["ISIS 416867: gapmer of Table 8 (antisense eA*e[5mC]*eT*eG*eG*d[5mC]*dA*dG*d[5mC]*dG*dG*dA*d[5mC]*dG*dG*e[5mC]*eA*eT*eT*eG)", 7.8],
  ["ISIS 416860: gapmer of Table 8 (antisense e[5mC]*eG*eG*eA*e[5mC]*dG*dG*d[5mC]*dA*dT*dT*dG*dG*dT*dG*e[5mC]*eA*e[5mC]*eA*eG)", 7.8]
]}

* * *

# Tested on: human Factor XI mRNA
# Measurement protocol: Dose-dependent inhibition and IC50 in HepG2 cells, electroporation (Example 15)
# Assay type: cell-based
# Experimental parameters: electroporation, 3,333.33 nM
Assay endpoint: percent inhibition of Factor XI mRNA (%)

{"columns": ["Substance", "Assay endpoint", "Reported"],
 "data": [
  ["416858 (antisense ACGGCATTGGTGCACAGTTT; 5-10-5 gapmer, wing sugar chemistry not given here, further chemistry not given here) [compound 416858]", "percent inhibition of Factor XI mRNA", 64],
  ["416860 (antisense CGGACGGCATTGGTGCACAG; 5-10-5 gapmer, wing sugar chemistry not given here, further chemistry not given here) [compound 416860]", "percent inhibition of Factor XI mRNA", 41],
  ["416856 (antisense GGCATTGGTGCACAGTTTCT; 5-10-5 gapmer, wing sugar chemistry not given here, further chemistry not given here) [compound 416856]", "percent inhibition of Factor XI mRNA", 59]
]}

* * *

# Test system: human Factor XI mRNA
# Measurement protocol: Antisense inhibition in HepG2 cells by microwalk gapmers, 75 nM, lipofectin (Example 3)
# Type: cell-based
# Experimental parameters: HepG2 cells, 75 nM, oligonucleotides targeted to nucleobases 1062 to 1091 of SEQ ID NO: 1
In the oligonucleotide strings, read from the 5' end, every base follows the letter of its sugar. An asterisk marks phosphorothioate; unmarked linkages are phosphodiester. Other units and linkages are bracketed, terminal groups are in braces. A string of capitals states the bases alone. e = 2'-O-(2-methoxyethyl) (MOE); [5mC] = 5-methylcytosine; d = 2'-deoxy (DNA)
Quick rule for you: % inhibition of human Factor XI mRNA levels at 90% or higher means yes, lower means no.

{"columns": ["Substance", "Tgt", "Class label"],
 "data": [
  ["412215 (antisense eA*eT*eT*e[5mC]*eT*dT*dT*dG*dG*dG*d[5mC]*d[5mC]*dA*dT*dT*e[5mC]*e[5mC]*eT*eG*eG) [compound 412215]", "human Factor XI mRNA", "no"],
  ["416994 (antisense eT*e[5mC]*dT*dT*dT*dG*dA*dG*dA*dT*dT*d[5mC]*dT*dT*dT*eG*eG*eG*e[5mC]*e[5mC]) [compound 416994]", "human Factor XI mRNA", "no"],
  ["416990 (antisense eT*eG*dA*dG*dA*dT*dT*d[5mC]*dT*dT*dT*dG*dG*dG*d[5mC]*e[5mC]*eA*eT*eT*e[5mC]) [compound 416990]", "human Factor XI mRNA", "no"],
  ["416842 (antisense eT*eG*eA*eG*eA*dT*dT*d[5mC]*dT*dT*dT*dG*dG*dG*d[5mC]*e[5mC]*eA*eT*eT*e[5mC]) [compound 416842]", "human Factor XI mRNA", "yes"],
  ["416995 (antisense eT*eT*d[5mC]*dT*dT*dT*dG*dA*dG*dA*dT*dT*d[5mC]*dT*dT*eT*eG*eG*eG*e[5mC]) [compound 416995]", "human Factor XI mRNA", "no"],
  ["416914 (antisense eT*eT*eG*dA*dG*dA*dT*dT*d[5mC]*dT*dT*dT*dG*dG*dG*d[5mC]*d[5mC]*eA*eT*eT) [compound 416914]", "human Factor XI mRNA", "no"],
  ["416987 (antisense eG*eA*dT*dT*d[5mC]*dT*dT*dT*dG*dG*dG*d[5mC]*d[5mC]*dA*dT*eT*e[5mC]*e[5mC]*eT*eG) [compound 416987]", "human Factor XI mRNA", "no"],
  ["413476 (antisense eT*eT*eG*eA*eG*dA*dT*dT*d[5mC]*dT*dT*dT*dG*dG*dG*e[5mC]*e[5mC]*eA*eT*eT) [compound 413476]", "human Factor XI mRNA", "yes"],
  ["416913 (antisense eT*eG*eA*dG*dA*dT*dT*d[5mC]*dT*dT*dT*dG*dG*dG*d[5mC]*d[5mC]*dA*eT*eT*e[5mC]) [compound 416913]", "human Factor XI mRNA", "yes"],
  ["416840 (antisense eA*eG*eA*eT*eT*d[5mC]*dT*dT*dT*dG*dG*dG*d[5mC]*d[5mC]*dA*eT*eT*e[5mC]*e[5mC]*eT) [compound 416840]", "human Factor XI mRNA", "no"],
  ["416915 (antisense eT*eT*eT*dG*dA*dG*dA*dT*dT*d[5mC]*dT*dT*dT*dG*dG*dG*d[5mC]*e[5mC]*eA*eT) [compound 416915]", "human Factor XI mRNA", "no"]
]}
